tested_on: human 5-HT4(a) (Homo sapiens)
assay_details: Evaluation of agonistic activity in CHO-K1 cells expressing human 5-HT4(a) (GeneBlAzer HTR4-CRE-bla CHO-K1, beta-lactamase reporter)
conditions: CHO-K1 cells stably expressing human 5-HT4(a)
measured_parameter: pEC50
Note: pEC50 values are expressed as the negative base-10 logarithm of concentration in M.

Some solved entries appear below for comparison.
>>> df
                                   compound  measured_parameter  measured_number
0  CCCc1cc(N2CCC[C@H]2C)nc(Nc2ccc(F)c(C#N)c2)n1 [Example 325]               pEC50            10.07
1  CCCc1cc(N2CC[C@H](NC(=O)CO)C2)nc(Nc2cccc(C#N)c2)n1 [Example 157]               pEC50            10.36
2  CCCc1cc(N2CC[C@H](NC3CCCC3)C2)nc(Nc2ccc(C)c(C#N)c2)n1 [Example 420]               pEC50            11.54
3  CCCc1cc(N2CCC[C@H]2COC)nc(Nc2ccc(N)c(C#N)c2)n1 [Example 45]               pEC50            10.44
4  CCCc1cc(N2CC[C@H](NC(C)=O)C2)nc(Nc2ccc(N)c(C(F)(F)F)c2)n1 [Example 261]               pEC50            11.15

Q) What measured pEC50 goes with CCCc1cc(N2CC[C@H](NCc3ccncc3)C2)nc(Nc2cccc(C#N)c2)n1 [Example 103] ?
A) 10.17

Q) What measured pEC50 goes with CCCc1cc(N2CC[C@H](NCC3CC3)C2)nc(Nc2ccc(F)c([N+](=O)[O-])c2)n1 [Example 373] ?
A) 11.37

Q) What measured pEC50 goes with CCCc1cc(N2CCC(NC(C)=O)C2)nc(Nc2ccc3[nH]c(C(F)(F)F)nc3c2)n1 (centres unmarked) [Example 307] ?
A) 9.62

Q) What measured pEC50 goes with CCCCc1cc(N2CC[C@H](NC)C2)nc(Nc2cccc(C#N)c2)n1 [Example 226] ?
A) 10.28

Q) What measured pEC50 goes with CCCc1cc(N2CCC(NC(C)=O)C2)nc(Nc2cnc3ccccc3c2)n1 (centres unmarked) [Example 310] ?
A) 9.43

Q) What measured pEC50 goes with CCCc1cc(N2CC[C@H](NC(=O)CO)C2)nc(Nc2ccc(C)c(C(F)(F)F)c2)n1 [Example 481] ?
A) 11.03

Q) What measured pEC50 goes with CCCCc1cc(N2CC[C@H](NC)C2)nc(Nc2ccc(F)c([N+](=O)[O-])c2)n1 [Example 449] ?
A) 11.36

Q) What measured pEC50 goes with CCCc1cc(N2CCC(NC(C)=O)C2)nc(Nc2cccc([N+](=O)[O-])c2)n1 (centres unmarked) [Example 295] ?
A) 10.32

Q) What measured pEC50 goes with CCCc1cc(N2CCC(NC(C)=O)C2)nc(Nc2ccc(N)c(C#N)c2)n1 (centres unmarked) [Example 311] ?
A) 10.72

---

pEC50 reference
tested_on: human 5-HT4(a) (Homo sapiens)
assay_details: Evaluation of agonistic activity in CHO-K1 cells expressing human 5-HT4(a) (GeneBlAzer HTR4-CRE-bla CHO-K1, beta-lactamase reporter)
conditions: CHO-K1 cells stably expressing human 5-HT4(a)
Note: pEC50 values are expressed as the negative base-10 logarithm of concentration in M.

>>> df
                           smiles_structure  measured_number
0  CCCCc1cc(N2CC[C@H](NC(C)=O)C2)nc(Nc2ccc(Cl)c([N+](=O)[O-])c2)n1            10.82
1  CCCc1cc(N2CC[C@H](NC3CCN(C(=O)c4ccccc4)CC3)C2)nc(Nc2cccc(C#N)c2)n1            10.47
2  CCCc1cc(N2CC[C@H](NC(C)=O)C2)nc(Nc2ccc(Cl)c(N)c2)n1            10.89

Q) What measured pEC50 goes with `CCCc1cc(N2CC[C@H](NCc3cccc(F)c3)C2)nc(Nc2cccc(C#N)c2)n1` ?
A) 10.04

Q) What measured pEC50 goes with `CCCCc1cc(N2CC[C@H](NCC3CC3)C2)nc(Nc2ccc(C)c(C#N)c2)n1` ?
A) 11.60

Q) What measured pEC50 goes with `CCCc1cc(N2CC[C@H](NC(C)=O)C2)nc(Nc2ccc3c(C)cc(=O)oc3c2)n1` ?
A) 10.28

Q) What measured pEC50 goes with `CCCc1cc(N2CC[C@H](NC)C2)nc(Nc2ccc3cc[nH]c3c2)n1` ?
A) 11.30

Q) What measured pEC50 goes with `CCCc1cc(N2CCC[C@H]2CO)nc(Nc2ccc3cc[nH]c3c2)n1` ?
A) 10.82

---

tested_on: human 5-HT4(a) (Homo sapiens, UniProt Q13639)
Sequence (Q13639 1-387 isoform Q13639-2): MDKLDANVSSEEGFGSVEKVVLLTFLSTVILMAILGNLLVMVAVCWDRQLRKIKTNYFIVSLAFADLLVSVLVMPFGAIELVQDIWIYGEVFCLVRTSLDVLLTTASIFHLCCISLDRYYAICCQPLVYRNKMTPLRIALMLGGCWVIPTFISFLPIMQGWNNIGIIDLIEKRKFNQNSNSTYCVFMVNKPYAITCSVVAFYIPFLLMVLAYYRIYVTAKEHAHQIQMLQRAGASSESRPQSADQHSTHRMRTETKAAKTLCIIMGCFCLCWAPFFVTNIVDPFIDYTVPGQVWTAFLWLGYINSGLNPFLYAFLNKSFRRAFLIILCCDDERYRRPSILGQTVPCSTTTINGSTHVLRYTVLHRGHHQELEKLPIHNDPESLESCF
assay_details: Evaluation of agonistic activity in CHO-K1 cells expressing human 5-HT4(a) (GeneBlAzer HTR4-CRE-bla CHO-K1, beta-lactamase reporter)
conditions: CHO-K1 cells stably expressing human 5-HT4(a)
Structures can show the parent of a compound that is named as a salt.
measured_parameter: EC50

Some solved entries appear below for comparison.
>>> print(df.to_string())
                                   molecule     result
0  CCCc1cc(N2CC[C@H](NC3CCCCC3)C2)nc(Nc2ccc(C)c(C#N)c2)n1  0.0079 nM
1  CCCc1cc(N2CCC[C@H]2C)nc(Nc2cccc(SC)c2)n1    0.18 nM
2  CCCc1cc(N2CC[C@H](NC(=O)CCCNC(=O)OC(C)(C)C)C2)nc(Nc2cccc(C#N)c2)n1   0.103 nM
3  CCCCc1cc(N2CC[C@H](NC(C)=O)C2)nc(Nc2ccc(N)c([N+](=O)[O-])c2)n1  0.0026 nM
4  CCCc1cc(N2CC[C@H](NC(C)CCC(C)C)C2)nc(Nc2cccc(C#N)c2)n1 (some centres unmarked)   0.214 nM

Q) What measured EC50 goes with `CCCCc1cc(N2CC[C@H](NC)C2)nc(Nc2ccc(F)c(N)c2)n1` ?
A) 0.0026 nM

Q) What measured EC50 goes with CCCc1cc(N2CC[C@H](N)C2)nc(Nc2cc(Cl)ccc2C)n1 [Example 348, dihydrochloride] ?
A) 0.019 nM

---

tested_on: human 5-HT4(a) (Homo sapiens, UniProt Q13639)
assay_details: Evaluation of agonistic activity in CHO-K1 cells expressing human 5-HT4(a) (GeneBlAzer HTR4-CRE-bla CHO-K1, beta-lactamase reporter)
conditions: CHO-K1 cells stably expressing human 5-HT4(a)
Counter-ions that a name gives are not always drawn.
// returns false unless EC50 is strictly below 3 pM, in which case true

Q) Below 3 pM on EC50? Entry CCCc1cc(N2CCC(NCC)C2)nc(Nc2ccc(F)cc2)n1 (centres unmarked) [Example 13]
A) false

Q) Below 3 pM on EC50? Entry CCCc1cc(N2CCC[C@H]2C)nc(Nc2cccc(C#N)c2)n1 [Example 53]
A) false

Q) Below 3 pM on EC50? Entry CCCc1cc(N2CCC(NC(C)=O)C2)nc(Nc2cccc(C(F)(F)F)c2)n1 (centres unmarked) [Example 301]
A) false

Q) Below 3 pM on EC50? Entry CCCCc1cc(N2CC[C@H](NCC)C2)nc(Nc2ccc(N)c(C(F)(F)F)c2)n1 [Example 467]
A) true

Q) Below 3 pM on EC50? Entry CCCCc1cc(N2CC[C@H](NCC)C2)nc(Nc2cccc(C#N)c2)n1 [Example 459]
A) false

Q) Below 3 pM on EC50? Entry CCCc1cc(N2CC[C@H](NCC3CC3)C2)nc(Nc2cccc([N+](=O)[O-])c2)n1 [Example 375]
A) false

Q) Below 3 pM on EC50? Entry CCCc1cc(N2CC[C@H](NCC)C2)nc(Nc2ccc(F)c(C(F)(F)F)c2)n1 [Example 491, hydrochloride]
A) true

Q) Below 3 pM on EC50? Entry CCCc1cc(N2CC[C@@H](O)C2)nc(Nc2cccc(C#N)c2)n1 [Example 57]
A) false

---

tested_on: human 5-HT4(a) (Homo sapiens, UniProt Q13639)
assay_details: Evaluation of agonistic activity in CHO-K1 cells expressing human 5-HT4(a) (GeneBlAzer HTR4-CRE-bla CHO-K1, beta-lactamase reporter)
conditions: CHO-K1 cells stably expressing human 5-HT4(a)
pEC50: −log10 of the molar value.
Entry flag: t if pEC50 reaches 10; f if it does not.

// known answers, use as guide
>>> print(df.to_string())
                                   compound  category
0  CCCCc1cc(N2CC[C@H](NC)C2)nc(Nc2ccc(Cl)c([N+](=O)[O-])c2)n1         t
1  CCCc1cc(N2CCC[C@H]2COC)nc(Nc2cccc([N+](=O)[O-])c2)n1         f
2  CCCc1cc(N2CC[C@H](NC(C)=O)C2)nc(Nc2ccc(C)c(C#N)c2)n1         t

Q) Hi team, for `CCCCc1cc(N2CC[C@H](NCC)C2)nc(Nc2ccc(F)c([N+](=O)[O-])c2)n1` , is the recorded pEC50 at or above 10?
A) t

Q) Hi team, for `CCCc1cc(N2CC[C@H](NC(=O)CO)C2)nc(Nc2ccc(C)c(Cl)c2)n1` , is the recorded pEC50 at or above 10?
A) t

Q) Hi team, for `CCCc1cc(N2CC[C@H](NCC3CC3)C2)nc(Nc2ccc(C)c(N)c2)n1` , is the recorded pEC50 at or above 10?
A) t

Q) Hi team, for `CCCc1cc(N2CC[C@H](NC(=O)CCc3ccccc3)C2)nc(Nc2cccc(C#N)c2)n1` , is the recorded pEC50 at or above 10?
A) f
